Quick reference: melting point of the listed items.

INSERT INTO measurements (molecule, val) VALUES
  ('O=C(Nc1cnc2ccc(Br)cc2c1Nc1ccc(Br)cc1)NS(=O)(=O)c1ccc(F)cc1 [21a]', '278.7 to 279.5 °C'),
  ('COc1ccc2nc(C)c(NC(=O)NS(=O)(=O)c3ccc(F)cc3)c(Nc3ccc(Br)cc3)c2c1 [23c]', '356.1 to 357.3 °C');

Exercise: # get_value(readout='melting point', item= O=C(Nc1cnc2ccc(Br)cc2c1Nc1ccc(F)c(Cl)c1)NS(=O)(=O)c1ccc(F)cc1 [22a] )
Solution: 295.1 to 296.3 °C

Exercise: Next up: COc1ccc(Nc2c(NC(=O)NS(=O)(=O)c3ccc(C(C)(C)C)cc3)cnc3ccc(Br)cc23)cc1 [20d]
Solution: 263.3 to 264.2 °C

Exercise: What do you get for COc1ccc(Nc2c(NC(=O)NS(=O)(=O)c3ccc(Cl)cc3)cnc3ccc(Br)cc23)cc1 [20b] ?
Solution: 282.2 to 283.1 °C

Exercise: Further, for Cc1ccc(S(=O)(=O)NC(=O)Nc2cnc3ccc(Br)cc3c2Nc2ccc(F)c(Cl)c2)cc1 [22c] ?
Solution: 278.7 to 279.9 °C

Exercise: Cool, now CC(C)(C)c1ccc(S(=O)(=O)NC(=O)Nc2cnc3ccc(Br)cc3c2Nc2ccc(Br)cc2)cc1 [21d]
Solution: 259.4 to 260.3 °C

====

// reported melting point per item

Reference set, count: 2
INSERT INTO results (compound, val) VALUES
  ('COc1ccc2nc(C)c(NC(=O)NS(=O)(=O)c3ccc(F)cc3)c(Nc3ccc(F)c(Cl)c3)c2c1 [23d]', '285.3 to 286.1 °C'),
  ('O=C(Nc1cnc2ccc(Br)cc2c1Nc1ccc(F)c(Cl)c1)NS(=O)(=O)c1ccc(Cl)cc1 [22b]', '282.3 to 283.7 °C');

Now consider the entry below.
Exercise: Which melting point is reported for this compound? Cc1ccc(S(=O)(=O)NC(=O)Nc2cnc3ccc(Br)cc3c2Nc2ccc(Br)cc2)cc1 [21c]
Solution: 279.6 to 280.2 °C

====

# experimentalTarget: PI3Kα (Homo sapiens, UniProt P42336)
# Sequence (P42336 whole entry): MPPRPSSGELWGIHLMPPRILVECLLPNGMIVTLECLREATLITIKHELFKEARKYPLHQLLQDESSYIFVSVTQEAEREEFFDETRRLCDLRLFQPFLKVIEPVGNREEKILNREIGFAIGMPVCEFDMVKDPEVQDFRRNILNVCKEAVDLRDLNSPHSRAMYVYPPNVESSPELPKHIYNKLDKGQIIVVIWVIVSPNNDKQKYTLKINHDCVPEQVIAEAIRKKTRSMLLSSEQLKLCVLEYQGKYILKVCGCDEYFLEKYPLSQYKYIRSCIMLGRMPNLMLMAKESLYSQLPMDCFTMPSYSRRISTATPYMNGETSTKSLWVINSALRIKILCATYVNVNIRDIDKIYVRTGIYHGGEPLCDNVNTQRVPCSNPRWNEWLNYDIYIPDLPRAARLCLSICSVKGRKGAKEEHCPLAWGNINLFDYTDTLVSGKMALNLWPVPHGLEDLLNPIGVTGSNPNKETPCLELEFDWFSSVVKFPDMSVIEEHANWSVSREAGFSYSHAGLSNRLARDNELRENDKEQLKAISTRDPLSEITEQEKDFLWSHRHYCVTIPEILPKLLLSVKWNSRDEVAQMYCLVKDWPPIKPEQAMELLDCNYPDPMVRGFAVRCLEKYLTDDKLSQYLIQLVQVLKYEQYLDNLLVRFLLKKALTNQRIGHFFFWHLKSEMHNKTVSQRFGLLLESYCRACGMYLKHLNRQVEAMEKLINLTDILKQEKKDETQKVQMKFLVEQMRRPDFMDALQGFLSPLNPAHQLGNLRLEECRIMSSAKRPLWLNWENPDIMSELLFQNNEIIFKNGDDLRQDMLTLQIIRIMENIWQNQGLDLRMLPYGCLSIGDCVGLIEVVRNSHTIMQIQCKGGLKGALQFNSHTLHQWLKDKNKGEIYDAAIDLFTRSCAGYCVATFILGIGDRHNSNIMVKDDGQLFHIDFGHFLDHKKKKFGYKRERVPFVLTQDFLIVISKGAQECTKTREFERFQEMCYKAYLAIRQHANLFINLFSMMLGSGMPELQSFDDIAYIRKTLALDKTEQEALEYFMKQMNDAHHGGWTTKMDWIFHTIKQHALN
# Sequence (P27986 whole entry partner): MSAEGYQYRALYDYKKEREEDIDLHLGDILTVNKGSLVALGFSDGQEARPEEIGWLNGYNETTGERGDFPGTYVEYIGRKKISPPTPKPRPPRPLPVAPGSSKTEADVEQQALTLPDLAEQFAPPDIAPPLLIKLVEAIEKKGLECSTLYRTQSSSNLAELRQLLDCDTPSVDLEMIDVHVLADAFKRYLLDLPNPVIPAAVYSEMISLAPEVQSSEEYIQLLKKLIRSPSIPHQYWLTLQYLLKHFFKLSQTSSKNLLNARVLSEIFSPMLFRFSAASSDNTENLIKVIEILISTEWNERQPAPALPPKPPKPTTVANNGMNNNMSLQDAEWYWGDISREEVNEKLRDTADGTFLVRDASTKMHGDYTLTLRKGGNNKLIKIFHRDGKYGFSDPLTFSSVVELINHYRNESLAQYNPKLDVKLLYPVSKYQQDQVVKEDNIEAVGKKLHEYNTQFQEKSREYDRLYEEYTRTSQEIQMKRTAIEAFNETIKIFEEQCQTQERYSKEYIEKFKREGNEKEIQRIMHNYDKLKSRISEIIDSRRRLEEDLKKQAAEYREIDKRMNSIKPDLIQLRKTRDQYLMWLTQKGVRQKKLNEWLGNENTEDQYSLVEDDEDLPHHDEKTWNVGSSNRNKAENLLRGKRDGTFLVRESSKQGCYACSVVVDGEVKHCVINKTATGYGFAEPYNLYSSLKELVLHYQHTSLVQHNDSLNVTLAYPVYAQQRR
# protocolText: PI3Kα kinase assay (Kinase-Glo Luminescent Kinase Assay)
# Assay type: biochemical
# conditionInfo: 1 µM ATP, 60 min, average of two determinations
endpointName: IC50 (µM)
Reply numerically in µM, unit not repeated.

Exercise: Can you share its IC50? I mean this compound: CC(C)(C#N)c1ccc(Nc2c(NC(=O)NS(=O)(=O)c3ccc(F)cc3)cnc3ccc(Br)cc23)cc1 [19a]
Solution: 0.72

====

# experimentalTarget: mTOR (Homo sapiens)
# protocolText: mTOR kinase assay (Kinase-Glo Luminescent Kinase Assay)
# Assay type: biochemical
# conditionInfo: 10 µM ATP, 60 min, average of two determinations
endpointName: IC50 (µM)
Supply the numeric figure in µM, leaving out any unit text.

Exercise: May I ask what IC50 has been recorded for CC(C)(C#N)c1ccc(Nc2c(NC(=O)NS(=O)(=O)c3ccc(F)cc3)cnc3ccc(Br)cc23)cc1 [19a] ?
Solution: 2.62

====

# System: HepG-2
# protocolText: In vitro cytotoxicity, MTT assay, HepG-2
# Format: cell-based
# conditionInfo: HepG-2 cells, 72 h, average of two separate determinations
endpointName: IC50 (µM)
Entry rule: numbers only, all in µM.

Exercise: Record request: IC50 value, item CC(C)(C#N)c1ccc(Nc2c(NC(=O)NS(=O)(=O)c3ccc(F)cc3)cnc3ccc(Br)cc23)cc1 [19a]
Solution: 33.3
